# System: bedstraw (Galium aparine)
# Test Description: Test B pre-/postemergence
# Type: in vivo
# Conditions Used: Rate 125 g/ha, Postemergence
# Experimental: […] At the same time, these crop and weed species were also treated with postemergence applications of test chemicals formulated in the same manner. […] Treated plants and controls were maintained in a greenhouse for twelve to sixteen days, after which all species were compared to controls and visually evaluated. […]
Observable: Bedstraw plant response rating
Just the number, please, no unit after it.

Solved cases (3 shown):
>  <Molecule>
O=C(c1cccc(C(F)(F)F)c1)c1ccnc(-n2ccc(C(F)(F)F)n2)n1 [Compound 70]

>  <Bedstraw plant response rating>
1

$$$$
>  <Molecule>
CCc1cnc(-n2ccc(C(F)(F)F)n2)nc1C(=O)c1cccc(C(F)(F)F)c1 [Compound 69]

>  <Bedstraw plant response rating>
9

$$$$
>  <Molecule>
Cc1cnc(-n2cnc(C(F)(F)F)c2)nc1C(=O)c1cccc(C(F)(F)F)c1 [Compound 61]

>  <Bedstraw plant response rating>
8

$$$$

[ask] What does the data say about its Bedstraw plant response rating? Entry: Cc1cnc(-c2ccc(C(F)(F)F)cc2)nc1C(=O)c1ccc(C(F)(F)F)cc1 [Compound 74]
[reply] 1

[ask] Which Bedstraw plant response rating is listed for Cc1cnc(-n2ccc(C(F)(F)F)n2)nc1C(=O)c1cccc(C(F)(F)F)c1 [Compound 59] ?
[reply] 7

----------
# Tested on: wild oat (Avena fatua)
# Test Description: Test B pre-/postemergence
# Assay type: in vivo
# Conditions Used: Rate 62 g/ha, Postemergence
# Experimental: […] At the same time, these crop and weed species were also treated with postemergence applications of test chemicals formulated in the same manner. […] Treated plants and controls were maintained in a greenhouse for twelve to sixteen days, after which all species were compared to controls and visually evaluated. […]
Recorded Wild oats plant response rating for the following compounds
Lab note: jot the number down without any unit.

Example entries begin here.
>  <Smiles Representation>
CCc1cnc(-n2ccc(C(F)(F)F)n2)nc1C(=O)c1cccc(C#N)c1

>  <Assayed System>
wild oat (Avena fatua)

>  <Wild oats plant response rating>
2

$$$$
>  <Smiles Representation>
Cc1cnc(-c2ccc(Cl)cc2F)nc1Cc1cccc(C#N)c1

>  <Assayed System>
wild oat (Avena fatua)

>  <Wild oats plant response rating>
1

$$$$
>  <Smiles Representation>
O=C(c1cccc(C(F)(F)F)c1)c1ccnc(-c2ccc(C(F)(F)F)cc2)n1

>  <Assayed System>
wild oat (Avena fatua)

>  <Wild oats plant response rating>
0

$$$$

[ask] Given the compound O=C(c1cccc(C(F)(F)F)c1)c1ccnc(-c2ccc(F)cc2F)n1 , what is its reported Wild oats plant response rating?
[reply] 0

[ask] Data request, read-out Wild oats plant response rating, for Cc1cnc(-c2ccc(F)cc2F)nc1Cc1cccc(C(F)(F)F)c1
[reply] 2

----------
# System: ivyleaf morningglory (Ipomoea hederacea)
# Test Description: Test C
# Type: in vivo
# Conditions Used: PREEMERGENCE, Rate 35 g/ha
Quick list: Plant response rating, I. morningglory per entry.
Simply state the number, no unit and no words.

Worked cases, Plant response rating, I. morningglory given:
>  <Compound>
Cc1cnc(-n2ccc(C(F)(F)F)n2)nc1Cn1ccc(C(F)(F)F)n1 [Compound 52]

>  <Observed Result>
5

$$$$
>  <Compound>
Cc1cnc(-n2ccc(C(F)(F)F)n2)nc1Cc1cccc(OC(F)(F)F)c1 [Compound 42]

>  <Observed Result>
30

$$$$
>  <Compound>
COc1cnc(-c2ccc(C(F)(F)F)cc2)nc1Cc1cccc(C(F)(F)F)c1 [Compound 23]

>  <Observed Result>
5

$$$$
>  <Compound>
Cc1cnc(-c2ccc(C(F)(F)F)cc2)nc1Cc1cccc(OC(F)(F)F)c1 [Compound 15]

>  <Observed Result>
15

$$$$

[ask] What value of Plant response rating, I. morningglory has been recorded for this entry: Cc1cnc(-c2ccc(C(F)(F)F)cc2)nc1C(Cl)c1cccc(C(F)(F)F)c1 (racemic) [Compound 21]
[reply] 0
